Just for reference, patent US20180099931A1 is where these values come from.

# assayed system: F508delCFTR (Homo sapiens, UniProt P13569, DEL508-508)
# Construct: expressed in transfected cells; host or cells: CFBE41o- human lung-derived epithelial cells (CFBE4lo-F508delCFTR-HRP), doxycycline-inducible
# Sequence (P13569 with tags, fused parts or gaps DEL508-508): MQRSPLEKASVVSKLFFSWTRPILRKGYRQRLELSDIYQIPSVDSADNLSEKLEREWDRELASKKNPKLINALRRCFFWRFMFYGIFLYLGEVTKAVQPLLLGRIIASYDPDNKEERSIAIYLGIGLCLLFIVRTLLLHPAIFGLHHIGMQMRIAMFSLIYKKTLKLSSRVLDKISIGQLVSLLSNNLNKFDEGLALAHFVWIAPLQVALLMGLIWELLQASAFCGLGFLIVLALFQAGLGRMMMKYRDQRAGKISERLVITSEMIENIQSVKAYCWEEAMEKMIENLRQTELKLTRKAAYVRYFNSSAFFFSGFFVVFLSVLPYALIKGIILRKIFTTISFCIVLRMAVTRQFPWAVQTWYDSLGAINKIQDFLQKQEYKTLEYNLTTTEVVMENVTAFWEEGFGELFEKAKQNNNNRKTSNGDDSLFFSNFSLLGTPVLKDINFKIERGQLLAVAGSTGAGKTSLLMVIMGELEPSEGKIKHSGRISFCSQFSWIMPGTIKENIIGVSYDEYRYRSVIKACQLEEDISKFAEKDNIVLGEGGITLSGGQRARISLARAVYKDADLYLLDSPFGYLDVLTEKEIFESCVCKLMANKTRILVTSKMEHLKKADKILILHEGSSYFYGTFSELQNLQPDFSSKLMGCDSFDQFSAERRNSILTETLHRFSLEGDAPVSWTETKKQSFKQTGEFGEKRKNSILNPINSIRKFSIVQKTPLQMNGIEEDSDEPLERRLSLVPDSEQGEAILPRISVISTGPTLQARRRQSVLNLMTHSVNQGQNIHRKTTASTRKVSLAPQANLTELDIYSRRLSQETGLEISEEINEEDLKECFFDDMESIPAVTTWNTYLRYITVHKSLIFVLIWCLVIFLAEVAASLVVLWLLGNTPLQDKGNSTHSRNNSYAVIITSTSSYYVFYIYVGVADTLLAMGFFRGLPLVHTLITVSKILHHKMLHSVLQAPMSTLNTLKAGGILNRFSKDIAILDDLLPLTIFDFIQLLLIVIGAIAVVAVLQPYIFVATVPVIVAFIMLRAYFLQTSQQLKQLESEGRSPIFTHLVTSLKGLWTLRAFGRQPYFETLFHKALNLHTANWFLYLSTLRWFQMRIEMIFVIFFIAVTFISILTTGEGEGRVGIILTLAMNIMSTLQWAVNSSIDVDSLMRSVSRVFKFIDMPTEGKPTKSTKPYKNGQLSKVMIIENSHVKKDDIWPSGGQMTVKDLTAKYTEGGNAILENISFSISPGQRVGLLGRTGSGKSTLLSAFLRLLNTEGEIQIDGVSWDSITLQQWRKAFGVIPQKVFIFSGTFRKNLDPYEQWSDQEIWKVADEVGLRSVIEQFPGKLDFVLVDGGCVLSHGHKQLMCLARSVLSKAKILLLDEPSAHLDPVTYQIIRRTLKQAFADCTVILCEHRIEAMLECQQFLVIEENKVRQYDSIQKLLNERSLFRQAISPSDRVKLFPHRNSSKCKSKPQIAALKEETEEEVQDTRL
# assay procedure: Cell Surface Expression-Horse Radish Peroxidase (CSE-HRP) Assay;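 on Maximum % activity (with co-corrector): co-corrector and positive control are both the same reference corrector at 2 µM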
# Type: cell-based
# reported conditions: CSE-HRP; with co-corrector (2 μM); maximum at any tested concentration, normalized to on-plate positive control

compound | assayed system | Maximum % activity (with co-corrector)
COc1ccc(C(C)(C)C)cc1CN[C@H]1[C@H](C(C)(C)C)[C@@H](C(=O)O)N(C(=O)C2OCCc3ccccc32)[C@H]1c1ccccc1 (stereo partly drawn) | F508delCFTR (Homo sapiens, UniProt P13569, DEL508-508) | +++ (≥350)
CC(C)(C)[C@H]1[C@H](Nc2cc(C(F)(F)F)cc(C(F)(F)F)c2)[C@H](c2ccccc2)N(C(=O)C2CCCCC2)[C@@H]1C(=O)O | F508delCFTR (Homo sapiens, UniProt P13569, DEL508-508) | +++ (≥350)
COc1ccc(C(C)(C)C)cc1CN[C@H]1[C@H](C(C)(C)C)[C@@H](C(=O)O)N(C(=O)CC2CCCO2)[C@H]1c1ccccc1 (stereo partly drawn) | F508delCFTR (Homo sapiens, UniProt P13569, DEL508-508) | +++ (≥350)

---

Each entry below carries its recorded EC50.
# assayed system: F508delCFTR (Homo sapiens, UniProt P13569, DEL508-508)
# Construct: expressed in transfected cells; host or cells: CFBE41o- human lung-derived epithelial cells (CFBE4lo-F508delCFTR-HRP), doxycycline-inducible
# assay procedure: Cell Surface Expression-Horse Radish Peroxidase (CSE-HRP) Assay
# Type: cell-based
# reported conditions: with co-corrector (2 μM of 3-[(2R,4R)-4-({[1-(2,2-difluoro-1,3-benzodioxol-5-yl)cyclopropyl]carbonyl}amino)-7-methoxy-3,4-dihydro-2H-chromen-2-yl]benzoic acid); read-out: EC50 (with co-corrector)

compound | endpoint name | observed measurement
COc1ccc(C(C)(C)C)cc1CN[C@H]1[C@H](C(C)(C)C)[C@@H](C(=O)O)N(C(=O)c2ccc(OC3CCOCC3)cc2)[C@H]1c1cccnc1N(C)C [II-465] | EC50 | < 1000 nM
COc1ncc(C(F)(F)F)cc1N[C@H]1[C@H](C(C)(C)C)[C@@H](C(=O)O)N(C(=O)[C@@H]2CCCC[C@H]2C(F)(F)F)[C@H]1c1cccnc1N(C)C [II-485] | EC50 | 1000 to 10000 nM

Please look up its EC50: COc1ncc(C2CCC2)cc1CN[C@H]1[C@H](C(C)(C)C)[C@@H](C(=O)O)N(C(=O)[C@H]2CCCCO2)[C@H]1c1ccccc1C(C)C [Example 72] < 1000 nM

---

# assayed system: F508delCFTR (Homo sapiens, UniProt P13569, DEL508-508)
# Construct: expressed in transfected cells; host or cells: CFBE41o- human lung-derived epithelial cells (CFBE4lo-F508delCFTR-HRP), doxycycline-inducible
# assay procedure: Cell Surface Expression-Horse Radish Peroxidase (CSE-HRP) Assay
# Format: cell-based
# reported conditions: with co-corrector (2 μM of 3-[(2R,4R)-4-({[1-(2,2-difluoro-1,3-benzodioxol-5-yl)cyclopropyl]carbonyl}amino)-7-methoxy-3,4-dihydro-2H-chromen-2-yl]benzoic acid); read-out: EC50 (with co-corrector)
# Experimental: Cell Surface Expression-Horse Radish Peroxidase (CSE-HRP) Assay The development was achieved by expressing the F508delCFTR mutation along with a horseradish peroxidase (HRP) in the fourth exofacial loop, and then measuring the HRP activity using luminescence readout from these cells, CFBE4lo-F508delCFTR-HRP, that were incubated overnight with the test corrector compounds, either without or with the co-corrector. […] The raw counts from the experiment were analyzed using Accelrys® Assay Explorer v3.3. […]
endpoint name: EC50

Examples from the recorded data:
compound | observed measurement
COc1ccc(C(F)(F)F)cc1CN[C@H]1[C@H](C(C)(C)C)[C@@H](C(=O)O)N(C(=O)OC(C)C)[C@H]1c1cccnc1N(C)C [II-551] | 1000 to 10000 nM
COc1ccc(C(C)(C)C)cc1CN[C@H]1[C@H](C(C)(C)C)[C@@H](C(=O)O)N(C(=O)C2CCO2)[C@H]1c1ccccc1 (stereo partly drawn) [II-443] | 1000 to 10000 nM
COc1ccc(C23CC(C2)C3)cc1CN[C@H]1[C@H](C(C)(C)C)[C@@H](C(=O)O)N(C(=O)OC(C)C)[C@H]1c1cccnc1OC [Example I-224] | 1000 to 10000 nM
CC(C)(C)[C@H]1[C@H](NCc2ccccc2C(F)F)[C@H](c2ccccc2)N(C(=O)C2CCCCC2)[C@@H]1C(=O)O [III-139] | < 1000 nM
COc1ccc(C(C)(C)C)cc1CN[C@H]1[C@H](C(C)(C)C)[C@@H](C(=O)O)N(C(=O)C2CC(F)C2)[C@H]1c1ccccc1 (stereo partly drawn) [II-335] | 1000 to 10000 nM

Could you now look at the following compound, please?
Please look up its EC50: COc1cc(Cl)nc(N[C@@H]2[C@@H](C(C)(C)C)[C@H](C(=O)O)N(C(=O)C3CCCCC3)[C@@H]2c2ccccc2)n1 (racemic) [Example I-2] 1000 to 10000 nM

---

# assayed system: F508delCFTR (Homo sapiens, UniProt P13569, DEL508-508)
# Construct: expressed in transfected cells; host or cells: CFBE41o- human lung-derived epithelial cells (CFBE4lo-F508delCFTR-HRP), doxycycline-inducible
# assay procedure: Cell Surface Expression-Horse Radish Peroxidase (CSE-HRP) Assay
# Assay type: cell-based
# reported conditions: with co-corrector (2 μM of 3-[(2R,4R)-4-({[1-(2,2-difluoro-1,3-benzodioxol-5-yl)cyclopropyl]carbonyl}amino)-7-methoxy-3,4-dihydro-2H-chromen-2-yl]benzoic acid); read-out: EC50 (with co-corrector)
pEC50: −log10 of the molar value.
Each entry below carries its recorded pEC50.

Examples from the recorded data:
compound | assayed system | observed measurement
COc1ccc(C(F)(F)F)cc1CN[C@H]1[C@H](C(C)(C)C)[C@@H](C(=O)O)N(C(=O)[C@H]2CCC[C@H](OC)C2)[C@H]1c1ccccc1 [Example I-60] | F508delCFTR (Homo sapiens, UniProt P13569, DEL508-508) | 5.00 to 6.00
CC(C)(C)[C@@H]1[C@@H](NCc2cc(Cl)ncc2O)[C@@H](c2ccccc2)N(C(=O)C2CCCCC2)[C@H]1C(=O)O (racemic) [III-73] | F508delCFTR (Homo sapiens, UniProt P13569, DEL508-508) | 5.00 to 6.00
COc1ccc(C(C)(C)C)cc1CN[C@H]1[C@H](C(C)(C)C)[C@@H](C(=O)O)N(C(=O)[C@H]2OCC[C@H]2C(C)C)[C@H]1c1ccccc1 (relative stereo) [Example 23] | F508delCFTR (Homo sapiens, UniProt P13569, DEL508-508) | > 6.00
COc1ccc(Cl)cc1CN[C@@H]1[C@@H](C(C)(C)C)[C@H](C(=O)O)N(C(=O)C2CCCCC2)[C@@H]1c1ccccn1 (racemic) [III-61] | F508delCFTR (Homo sapiens, UniProt P13569, DEL508-508) | 5.00 to 6.00
COc1ccc(C23CC(C2)C3)cc1CN[C@H]1[C@H](C(C)(C)C)[C@@H](C(=O)O)N(C(=O)C2CCCCC2)[C@H]1c1cccnc1OC [II-486] | F508delCFTR (Homo sapiens, UniProt P13569, DEL508-508) | > 6.00
CCC(C)(O)CC(=O)N1[C@H](C(=O)O)[C@@H](C(C)(C)C)[C@H](NCc2cc(C(C)(C)C)ccc2OC)[C@@H]1c1ccccc1 (some centres unmarked) [II-371] | F508delCFTR (Homo sapiens, UniProt P13569, DEL508-508) | 5.00 to 6.00
COc1cc2ccccc2cc1CN[C@H]1[C@H](C(C)(C)C)[C@@H](C(=O)O)N(C(=O)OC(C)C)[C@H]1c1cccnc1N(C)C [II-562] | F508delCFTR (Homo sapiens, UniProt P13569, DEL508-508) | 5.00 to 6.00
COc1nc(C(C)(C)C)ccc1CN[C@H]1[C@H](C(C)(C)C)[C@@H](C(=O)O)N(C(=O)C2CCCC(F)(F)C2)[C@H]1c1ccccc1 (relative stereo) [Example 53] | F508delCFTR (Homo sapiens, UniProt P13569, DEL508-508) | > 6.00

Please look up its pEC50: COc1ccc(C(F)(F)F)cc1CN[C@H]1[C@H](C(C)(C)C)[C@@H](C(=O)O)N(C(=O)[C@H](OC)c2ccccc2)[C@H]1c1ccccc1 [Example I-20] > 6.00

Please look up its pEC50: COc1ncc(C2CCC2)cc1CN[C@H]1[C@H](C(C)(C)C)[C@@H](C(=O)O)N(C(=O)C2CCCC(F)(F)C2)[C@H]1c1ccccc1 (some centres unmarked) [II-492] > 6.00
